As shown below, each of these molecules has a reported inhibition of disassembly value.
- Tested on: 26S proteasome (yeast, GFP-tagged, ATP-dependent disassembly)
- ASSAY DETAILS: inhibitors of ATP-driven 26S proteasome dissociation, primary screen, biochemical, bead-based flow cytometry, GFP-tagged proteasome (AID 751);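 further: plate controls were ATP control with full disassembly for no effect and ATP-gamma-S intact proteasomes for full effect; higher percent means more bead fluorescence retained so stronger block of disassembly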
- CONDITION PARAMETERS: anti-FLAG beads, hits give high values, concentration not given here
About 40 (0.2%) of roughly 24,000 compounds were called active. Shown is part of a subset that was picked to be rich in actives.
Numbers only here, please. The scale is %.

# count of solved cases: 3
{"MOLECULE": "CCCCOC(=O)Nc1nccs1", "OBSERVABLE": "inhibition of disassembly", "REPORTED RESULT": 0.85}
{"MOLECULE": "CN(CC(=O)NC1CCCCC1)S(=O)(=O)c1cccc2cccnc12", "OBSERVABLE": "inhibition of disassembly", "REPORTED RESULT": -0.29}
{"MOLECULE": "O=C1CC(c2cccc(Br)c2)C2=C(CCCC2=O)N1 (stereo unspecified)", "OBSERVABLE": "inhibition of disassembly", "REPORTED RESULT": 2.93}

Would you kindly share the measured inhibition of disassembly for O=C(Nc1c2c(nn1-c1ccc(F)cc1)CS(=O)C2)C12CC3CC(CC(C3)C1)C2 (stereo unspecified) ? -2.52

Continue with `O=C(Cn1nnc(-c2ccc(CN3CCOCC3)cc2)n1)NC1CCCCC1` 0.56

Continue with `Cc1cc(C(=O)O)c(S(C)(=O)=O)s1` -0.75
